Experiment: Pharmacokinetics of clobazam in plasma (LC-MS/MS)
Format: in vivo
Conditions: human, po, 20 mg, clobazam 20 mg oral, all volunteers (n = 16), mean (SD)
recorded_endpoint: AUC (ng·h/mL)
Give the number; ng·h/mL is assumed, so skip it.

Look up AUC for this molecule: CN1C(=O)CC(=O)N(c2ccccc2)c2cc(Cl)ccc21
5460

###

Experiment: Pharmacokinetics of clobazam in plasma (LC-MS/MS)
Type: in vivo
Conditions: human, po, 20 mg, clobazam 20 mg oral, all volunteers (n = 16), mean (SD)
recorded_endpoint: half-life (h)
Give the value in h but do not write h after it.

So what does the record say about half-life for CN1C(=O)CC(=O)N(c2ccccc2)c2cc(Cl)ccc21 ?
19
